assay: Plate-based fluorescence (RiboGreen) assay: nucleic acid cargo content and encapsulation efficiency of LNPs; assay type: physicochemical; conditions: LNP, Formulation F1, N/P 6
Test readout: EE (%) N/P:6
Just the number in %, nothing appended.

Some molecules with recorded EE (%) N/P:6:
Molecule	Test readout	Numeric readout
CCCCC/C=C\CCOC(=O)CCCCCCC(=O)OCC(COC(=O)CCCCCCC(=O)OCC/C=C\CCCCC)(COC(=O)CCC(CCCCCC)OC(=O)NCCN1CCCC1)COC(=O)CC12CC3CC(CC(C3)C1)C2 (stereo not shown) [Compound 11]	EE (%) N/P:6	100
CCCCCCCC/C=C\CCCCCCCC(=O)OCC(COC(=O)CCCCCCC/C=C\CCCCCCCC)(COC(=O)CCC(CCCCCC)OC(=O)NCCN1CCCC1)COC(=O)CC12CC3CC(CC(C3)C1)C2 (stereo not shown) [Compound 3]	EE (%) N/P:6	98
CCCCC/C=C\C/C=C\CCCCCCCC(=O)OCC(COC(=O)CCCCCCC/C=C\C/C=C\CCCCC)(COC(=O)CCCCCCC/C=C\C/C=C\CCCCC)COC(=O)CCC(CCCCCC)OC(=O)NCCN1CCCC1 (stereo not shown) [Compound 2]	EE (%) N/P:6	98
CCCCC/C=C\CCOC(=O)CCCCC(=O)OCC(COC(=O)CCCCC(=O)OCC/C=C\CCCCC)(COC(=O)CCC(CCCCCC)OC(=O)NCCN1CCCC1)COC(=O)CC12CC3CC(CC(C3)C1)C2 (stereo not shown) [Compound 14]	EE (%) N/P:6	99
CCCCCCC(CCC(=O)OCC(COC(=O)CCCCCCOC(=O)C(CCCC)CCCCCC)(COC(=O)CCCCCCOC(=O)C(CCCC)CCCCCC)COC(=O)CCCCCCOC(=O)C(CCCC)CCCCCC)OC(=O)NCCN1CCCC1 (stereo not shown) [Compound 18]	EE (%) N/P:6	99
CCCCC/C=C\CCOC(=O)CCCCCCC(=O)OCC(COC(=O)CCCCCCC(=O)OCC/C=C\CCCCC)(COC(=O)CCC(CCCCCC)OC(=O)NCCN1CCCC1)COC(=O)CCC(OCCCCCCCC)OCCCCCCCC (stereo not shown) [Compound 12]	EE (%) N/P:6	98
CCCCCCCCOC(CCC(=O)OCC(COC(=O)CCCCCCOC(=O)C(CCCC)CCCCCC)(COC(=O)CCC(CCCCCC)OC(=O)NCCN1CCCC1)COC(=O)CCC(OCCCCCCCC)OCCCCCCCC)OCCCCCCCC (stereo not shown) [Compound 20]	EE (%) N/P:6	100
CCCCC/C=C\CCOC(=O)CCCCCC(=O)OCC(COC(=O)CCCCCCOC(=O)C(CCCC)CCCCCC)(COC(=O)CCCCCC(=O)OCC/C=C\CCCCC)COC(=O)CCC(CCCCCC)OC(=O)NCCN1CCCC1 (stereo not shown) [Compound 16]	EE (%) N/P:6	99

Fill in the blank: the reported EE (%) N/P:6 of CCCCCCCC/C=C\CCCCCCCC(=O)OCC(COC(=O)CCCCCCC/C=C\CCCCCCCC)(COC(=O)CCC(CCCCCC)OC(=O)NCCN1CCCC1)COC(=O)CCC(OCCCCCCCC)OCCCCCCCC (stereo not shown) [Compound 4] is ____.
100

Can you handle CCCCCCCC/C=C\CCCCCCCC(=O)OCC(COC(=O)CCCCCCC/C=C\CCCCCCCC)(COC(=O)CCCCCCC/C=C\CCCCCCCC)COC(=O)CCC(CCCCCC)OC(=O)NCCN1CCCC1 (stereo not shown) [Compound 1] next?
100

Same question, CCCCC/C=C\C/C=C\CCCCCCCC(=O)OCC(COC(=O)CCCCCCC/C=C\C/C=C\CCCCC)(COC(=O)CCC(CCCCCC)OC(=O)NCCN1CCCC1)COC(=O)CC12CC3CC(CC(C3)C1)C2 (stereo not shown) [Compound 5] this time
98

Ok, now CCCCC/C=C\CCOC(=O)CCCCCC(=O)OCC(COC(=O)CCCCCC(=O)OCC/C=C\CCCCC)(COC(=O)CCC(CCCCCC)OC(=O)NCCN1CCCC1)COC(=O)CC12CC3CC(CC(C3)C1)C2 (stereo not shown) [Compound 8]
100
